The following compounds are listed with their measured cell viability values.
system: P12-Ichikawa; assay: cell viability relative to DMSO control; higher = less cytotoxic; settings: RPMI 5 mM glucose + 10% FBS; 48 h; 0.19 µM
measured.parameter: cell viability (%)

> print(dat)
                                   compound  test.value
1  COc1ccc([S+](=O)([O-])Nc2cccnc2Nc2ccc(O)cc2)cc1         119
2    Cc1ccc(/C=N/NC(=O)c2ccccc2Oc2ccccc2)o1        90.8
3  C[N+]1(C)[C@@H]2CC(OC(=O)C(O)(c3cccs3)c3cccs3)C[C@H]1[C@@H]1O[C@@H]12 (some centres undefined)         126
4  CC(C)[N+]1(C)C2CCC1CC(OC(=O)C(CO)c1ccccc1)C2.O.[Br-] (centres undefined)         125
5  CCOCC(O)COc1ccc(NC(=O)CC[S+](C)C)cc1 (centres undefined)        95.9
6  Cc1cnc(Nc2ccc(N3CCN(C)CC3)cc2)nc1Nc1cccc([S+](=O)([O-])NC(C)(C)C)c1         111
7  Cc1c(C(=O)c2cccc3ccccc23)c2cccc3c2n1[C@H](CN1CCOCC1)CO3        77.5
8  COC(=O)C/1=C(C)/N/C(=C(\C1C2=CC(=CC=C2)[N+]([O-])=O)C(=O)OCCCN3CCC(CC3)(C4=CC=CC=C4)C5=CC=CC=C5)C (centres undefined)        95.3
9                  C1COC(NC(C2CC2)C2CC2)=N1        97.6

====

system: SEM cells; assay: cell viability relative to DMSO control; higher = less cytotoxic; conditions: RPMI 5 mM glucose + 10% FBS; 48 h; 0.0211 µM
The following compounds are listed with their measured cell viability values.
measured.parameter: cell viability (%)

> print(dat)
                                   compound  target.entity  measurement.units  test.value
1  COC(=O)C/1=C(C)/N/C(=C(\C1C2=CC(=CC=C2)[N+]([O-])=O)C(=O)OCCCN3CCC(CC3)(C4=CC=CC=C4)C5=CC=CC=C5)C (stereo unspecified)      SEM cells                  %        39.7
2  CC(C)c1c(C(=O)Nc2ccccc2)c(-c2ccccc2)c(-c2ccc(F)cc2)n1CC[C@@H](O)C[C@@H](O)CC(=O)[O-]      SEM cells                  %         120
3         COc1cc2ncnc(Nc3cccc(Cl)c3)c2cc1OC      SEM cells                  %         119
4  C[C@H]1Oc2cc(cnc2N)-c2c(nn(C)c2C#N)CN(C)C(=O)c2ccc(F)cc21      SEM cells                  %         109
5    Clc1ccccc1C(c1ccccc1)(c1ccccc1)n1ccnc1      SEM cells                  %         123
6  CCCCc1nc2cc(/C=C/C(=O)NO)ccc2n1CCN(CC)CC      SEM cells                  %        97.8

====

The following compounds are listed with their measured cell viability values.
system: NOMO1; assay: cell viability relative to DMSO control; higher = less cytotoxic; settings: RPMI 5 mM glucose + 10% FBS; 48 h; 0.0211 µM
measured.parameter: cell viability (%)

> print(dat)
                                   compound  target.entity  measured.parameter  measurement.units  test.value
1  COc1ccc(C2(C#N)CCC(C(=O)O)CC2)cc1OC1CCCC1 (stereo not given)          NOMO1      cell viability                  %        87.5
2  Cc1c(C(=O)c2cccc3ccccc23)c2cccc3c2n1[C@H](CN1CCOCC1)CO3          NOMO1      cell viability                  %        87.8
3  COc1cc2ncn(-c3cc(OCc4ccccc4C(F)(F)F)c(C(N)=O)s3)c2cc1OC          NOMO1      cell viability                  %         111
4  CCOC(=O)[C@H]1O[C@@H]1C(=O)N[C@@H](CC(C)C)C(=O)NCCC(C)C          NOMO1      cell viability                  %         117
5  CC(C)CC(N(C)C)C1(c2ccc(Cl)cc2)CCC1 (stereo not given)          NOMO1      cell viability                  %         118
